System: Mus musculus
Experiment: Biodistribution in thyroid gland of C57BL/6J mouse bearing mouse B16F0 cells at 0.37 to 1.85 MBq, iv after 6 hrs by gamma counting method
Type: ADME, organism-based
Conditions: in vivo
PROPERTY NAME: Drug uptake (% ID/g)

O=C(c1ccc2cccnc2n1)N1CCN(Cc2ccc([123I])cc2)CC1 = 3.5
O=C(CN1Cc2ccccc2C1=O)NC1CCN(Cc2ccc([123I])cc2)CC1 = 3.1
O=C(c1ccc2c(n1)NCCC2)N1CCN(Cc2ccc([123I])cc2)CC1 = 2.7
O=C(CN1Cc2ccccc2C1=O)N1C[C@H]2CN(Cc3ccc([123I])cc3)C[C@H]2C1 = 2.8

----------
Tested on: Mus musculus
Assay: Biodistribution in small gastrointestinal tract of C57BL/6J mouse bearing mouse B16F0 cells at 0.37 to 1.85 MBq, iv after 16 hrs by gamma counting method
Format: ADME, organism-based, Small intestine
Settings: in vivo
PROPERTY NAME: Drug uptake (% ID/g)

a. O=C(CN1Cc2ccccc2C1=O)NC1CCN(Cc2ccc([123I])cc2)CC1
b. O=C(CN1Cc2ccccc2C1=O)N1C[C@H]2CN(Cc3ccc([123I])cc3)C[C@H]2C1
// which entry has the larger Drug uptake value, a or b ? Select an item and report its label. a
(a: 3.7 % ID/g, b: 0.5 % ID/g)

----------
Tested on: Mus musculus
Assay: Biodistribution in small gastrointestinal tract of C57BL/6J mouse bearing mouse B16F0 cells at 0.37 to 1.85 MBq, iv after 1 hr by gamma counting method
Type: ADME, organism-based, Small intestine
Details: in vivo
PROPERTY NAME: Drug uptake (% ID/g)

Field: example entries. Status: answers known.
O=C(CN1Cc2ccccc2C1=O)N1C[C@H]2CN(Cc3ccc([123I])cc3)C[C@H]2C1 = 21.4
O=C(c1ccc2cccnc2n1)N1CCN(Cc2ccc([123I])cc2)CC1 = 14.4

I. O=C(CN1Cc2ccccc2C1=O)NC1CCN(Cc2ccc([123I])cc2)CC1
II. O=C(c1ccc2c(n1)NCCC2)N1CCN(Cc2ccc([123I])cc2)CC1
Which of the two items, I and II , has the greater recorded Drug uptake? Answer by quoting the chosen item's label. II
(II: 45.6 % ID/g, I: 11.9 % ID/g)

----------
System: Mus musculus
Experiment: Biodistribution in small gastrointestinal tract of C57BL/6J mouse bearing mouse B16F0 cells at 0.37 to 1.85 MBq, iv after 24 hrs by gamma counting method
Format: ADME, organism-based, Small intestine
Conditions: in vivo
PROPERTY NAME: Drug uptake (% ID/g)

I. O=C(c1ccc2cccnc2n1)N1CCN(Cc2ccc([123I])cc2)CC1
II. O=C(CN1Cc2ccccc2C1=O)NC1CCN(Cc2ccc([123I])cc2)CC1
Endpoint returns whichever of I and II has the numerically higher Drug uptake. Output the label that corresponds to your choice. II

P. O=C(CN1Cc2ccccc2C1=O)N1C[C@H]2CN(Cc3ccc([123I])cc3)C[C@H]2C1
Q. O=C(c1ccc2c(n1)NCCC2)N1CCN(Cc2ccc([123I])cc2)CC1
Which record would sort first by descending Drug uptake, P or Q ? Pick one and reply with its label. Q
(Q: 0.8 % ID/g, P: 0.3 % ID/g)

----------
Tested on: Spleen
Assay: Biodistribution in spleen of C57BL/6J mouse bearing mouse B16F0 cells at 0.37 to 1.85 MBq, iv after 6 hrs by gamma counting method
Format: ADME, organism-based
Settings: in vivo
PROPERTY NAME: Drug uptake (% ID/g)

Some molecules with known Drug uptake results, for comparison:
O=C(c1ccc2c(n1)NCCC2)N1CCN(Cc2ccc([123I])cc2)CC1 = 1
O=C(CN1Cc2ccccc2C1=O)NC1CCN(Cc2ccc([123I])cc2)CC1 = 3.6

P. O=C(c1ccc2cccnc2n1)N1CCN(Cc2ccc([123I])cc2)CC1
Q. O=C(CN1Cc2ccccc2C1=O)N1C[C@H]2CN(Cc3ccc([123I])cc3)C[C@H]2C1
Could you tell me which of P and Q has the lower Drug uptake reading? // respond with label for picked entry Q
(Q: 0.4 % ID/g, P: 2.1 % ID/g)
